- Protocol: Protein binding in plasma
- Run parameters: read-out: PPB (converted)
Value kind: fraction unbound
Lab note: jot down the number only; don't add units.

Consider `CN1[C@@H]2CC[C@H]1c1c(sc(NC(=O)Nc3ccc(Cl)cc3)c1C(N)=O)C2.Cl` . Its measured fraction unbound is 0.1

---

- Protocol: Elimination half life in rat by LC-MS method
- Type: ADME
- Run parameters: in vivo, read-out: beta t1/2 (converted)
Value kind: half-life

Consider `CN1[C@@H]2CC[C@H]1c1c(sc(NC(=O)Nc3ccc(Cl)cc3)c1C(N)=O)C2.Cl` . Its measured half-life is 7.8 h

Consider `NC(=O)c1c(NC(=O)Nc2ccc(Cl)cc2)sc2c1CCN(CCCNC(=O)CCc1c[nH]c3ccccc13)C2` . Its measured half-life is 7.1 h

---

- System name: Cytochrome P450 2C19 (Homo sapiens)
- Sequence (P33261 whole entry): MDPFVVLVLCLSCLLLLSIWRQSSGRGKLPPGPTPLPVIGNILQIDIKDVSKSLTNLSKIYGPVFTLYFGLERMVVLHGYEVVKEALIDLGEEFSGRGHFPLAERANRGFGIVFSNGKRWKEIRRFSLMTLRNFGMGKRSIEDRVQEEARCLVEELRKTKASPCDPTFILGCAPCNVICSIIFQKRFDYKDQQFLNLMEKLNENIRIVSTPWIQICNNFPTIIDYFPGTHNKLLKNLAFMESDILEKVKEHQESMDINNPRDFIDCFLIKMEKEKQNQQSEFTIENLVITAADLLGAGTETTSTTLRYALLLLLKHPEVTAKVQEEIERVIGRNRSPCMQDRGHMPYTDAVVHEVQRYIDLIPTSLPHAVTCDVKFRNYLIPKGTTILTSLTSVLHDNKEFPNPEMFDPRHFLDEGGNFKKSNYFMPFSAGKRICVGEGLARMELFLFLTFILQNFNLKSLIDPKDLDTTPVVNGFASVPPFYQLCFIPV
Value kind: pIC50
// returns pIC50 (minus log10 of molar concentration), number only

Case `CN1[C@@H]2CC[C@H]1c1c(sc(NC(=O)Nc3ccc(Cl)cc3)c1C(N)=O)C2.Cl` , Cytochrome P450 2C19 (Homo sapiens), pIC50 recorded as 4.24
